target: CAII (Homo sapiens, UniProt P00918); experiment: Kinetic analyses of covalent modification, intact protein LC-MS; type: binding; set-up: purchased Sigma Aldrich C6624-500UG; host or cells: E. coli; conditions: 0.5 μM CAII; 5-100 μM SF; 0-24 h; 20 °C
Measurement Name: kinact/KI (M⁻¹ s⁻¹)
One number for each entry, in M⁻¹ s⁻¹.

Could you tell me kinact/KI for each of these compounds? They are listed below.
1. CC(NC(=O)Cc1ccc(S(=O)(=O)F)cc1)c1cccc(S(N)(=O)=O)c1 (stereo not shown)
2. NS(=O)(=O)Cc1cccc(CNC(=O)Cc2ccc(S(=O)(=O)F)cc2)c1

**Result**
1. 3.6
2. 2

---

Please respond with reported kinact for every item in the list.
Target: CAII (Homo sapiens)
Test: Kinetic analyses of covalent modification, intact protein LC-MS
Assay type: binding
Design: purchased Sigma Aldrich C6624-500UG; host or cells: E. coli
Settings: 0.5 μM CAII; 5-100 μM SF; 0-24 h; 20 °C
Description: The kinetics of binding were investigated by incubation of the resynthesized and purified SFs 2b–e with CAII at a range of concentrations and analysis by intact protein LC–MS over a 24 h period (see Figure S9). The concentration–response was analyzed based on a two-step model of reversible ligand (L) binding and subsequent irreversible covalent modification of the protein (P) (P + L ⇌ P·L → PL) (see Figure S10).[24] […]
One number for each entry, in s⁻¹.

- Molecule: "NS(=O)(=O)c1cccc(CNC(=O)Cc2ccc(S(=O)(=O)F)cc2)c1"
  kinact [s⁻¹]: "3e-05"

Below are 3 molecules. Give each one its kinact.
1. NS(=O)(=O)c1ccc(CCNC(=O)Cc2ccc(S(=O)(=O)F)cc2)cc1
2. NS(=O)(=O)Cc1cccc(CNC(=O)Cc2ccc(S(=O)(=O)F)cc2)c1
3. CC(NC(=O)Cc1ccc(S(=O)(=O)F)cc1)c1cccc(S(N)(=O)=O)c1 (stereo not shown)

**Result**
["1.8e-05", "3.3e-05", "3.2e-05"]

---

molecular target: BCL6 BTB/POZ domain (Homo sapiens, UniProt P41182, C67R/C84N/C8Q); assay: Displacement study with GSK137, intact protein LC-MS; type: binding; set-up: hBCL6-Flag-6H-Avi 3Cmut (5–129) produced as part of the GSK/GenScript collaboration; Flag (C); 6H (His6) (C); Avi (C); conditions: DModification/Modification(DMSO-d6 treatment)
Can you tell me Displacement Ratio for the items I'm about to list?
Answers are plain numbers.

Previously resolved entries follow.
- Structure As Smiles: "CN(C)C(=O)Nc1cccc(CNC(=O)Cc2ccc(S(=O)(=O)F)cc2)c1"
  Study System: "BCL6 BTB/POZ domain (Homo sapiens, UniProt P41182, C67R/C84N/C8Q)"
  Reported Value: 0.78
- Structure As Smiles: "CC(=O)Nc1cccc(CNC(=O)Cc2ccc(S(=O)(=O)F)cc2)c1"
  Study System: "BCL6 BTB/POZ domain (Homo sapiens, UniProt P41182, C67R/C84N/C8Q)"
  Reported Value: 0.81
- Structure As Smiles: "NC(=O)c1ccccc1OC1CN(C(=O)Cc2ccc(S(=O)(=O)F)cc2)C1"
  Study System: "BCL6 BTB/POZ domain (Homo sapiens, UniProt P41182, C67R/C84N/C8Q)"
  Reported Value: 0.92

**Query** What measured Displacement Ratio goes with "O=C(Cc1ccc(S(=O)(=O)F)cc1)N1CC(Oc2ccc(F)c(F)c2)C1" ?
**Result** 0.84

---

biological target: BCL6 (Homo sapiens, UniProt P41182, C67R/C84N/C8Q); construct: hBCL6-Flag-6H-Avi 3Cmut (5–129) produced as part of the GSK/GenScript collaboration; Flag (C); 6H (His6) (C); Avi (C); test: Identification of site(s) of covalent modification by tandem MS; details: 2 μM BCL6, 100 μM SF, 4 °C, 24 h; trypsin digest LC-MS/MS

- Structure As Smiles: "O=C(Cc1ccc(S(=O)(=O)F)cc1)N1CC(Oc2ccc(F)c(F)c2)C1"
  site of covalent modification: "His115"
- Structure As Smiles: "CC(=O)Nc1cccc(CNC(=O)Cc2ccc(S(=O)(=O)F)cc2)c1"
  site of covalent modification: "Tyr57"
- Structure As Smiles: "CN(C)C(=O)Nc1cccc(CNC(=O)Cc2ccc(S(=O)(=O)F)cc2)c1"
  site of covalent modification: "Tyr57"
- Structure As Smiles: "NC(=O)c1ccccc1OC1CN(C(=O)Cc2ccc(S(=O)(=O)F)cc2)C1"
  site of covalent modification: "His115"

---

biological target: BCL6 BTB/POZ domain (Homo sapiens, UniProt P41182, C67R/C84N/C8Q); test: Displacement study with GSK137, intact protein LC-MS; assay type: binding; set-up: hBCL6-Flag-6H-Avi 3Cmut (5–129) produced as part of the GSK/GenScript collaboration; Flag (C); 6H (His6) (C); Avi (C); settings: difference DMSO-d6 vs GSK137 treatment
Answer each item with its documented DModification.
Give bare numbers, in %.

Worked examples follow.
- Structure As Smiles: "NC(=O)c1ccccc1OC1CN(C(=O)Cc2ccc(S(=O)(=O)F)cc2)C1"
  Display Unit: "%"
  DModification: 18.1
- Structure As Smiles: "O=C(Cc1ccc(S(=O)(=O)F)cc1)N1CC(Oc2ccc(F)c(F)c2)C1"
  Display Unit: "%"
  DModification: 8.7
- Structure As Smiles: "CN(C)C(=O)Nc1cccc(CNC(=O)Cc2ccc(S(=O)(=O)F)cc2)c1"
  Display Unit: "%"
  DModification: 13.8

Moving on to the next molecule.
**Query** Quick one: DModification of "CC(=O)Nc1cccc(CNC(=O)Cc2ccc(S(=O)(=O)F)cc2)c1" ?
**Result** 20.2

---

Give Modification (DMSO-d6 treatment) for every item shown.
target: BCL6 BTB/POZ domain (Homo sapiens, UniProt P41182, C67R/C84N/C8Q); test: Displacement study with GSK137, intact protein LC-MS; assay type: binding; set-up: hBCL6-Flag-6H-Avi 3Cmut (5–129) produced as part of the GSK/GenScript collaboration; Flag (C); 6H (His6) (C); Avi (C); settings: 1 μM protein; 50 μM SF; 20 °C, 24 h; average of duplicate
Answers are plain numbers, in %.

- Structure As Smiles: "CC(=O)Nc1cccc(CNC(=O)Cc2ccc(S(=O)(=O)F)cc2)c1"
  Reported Value: 25.0
- Structure As Smiles: "O=C(Cc1ccc(S(=O)(=O)F)cc1)N1CC(Oc2ccc(F)c(F)c2)C1"
  Reported Value: 10.3
- Structure As Smiles: "NC(=O)c1ccccc1OC1CN(C(=O)Cc2ccc(S(=O)(=O)F)cc2)C1"
  Reported Value: 19.7

Here is the next item to consider.
**Query** I would be grateful if you could share the reported Modification (DMSO-d6 treatment) for "CN(C)C(=O)Nc1cccc(CNC(=O)Cc2ccc(S(=O)(=O)F)cc2)c1" .
**Result** 17.6

---

Target: BCL6 BTB/POZ domain (Homo sapiens, UniProt P41182, C67R/C84N/C8Q)
Test: Displacement study with GSK137, intact protein LC-MS
Assay type: binding
Parameters: hBCL6-Flag-6H-Avi 3Cmut (5–129) produced as part of the GSK/GenScript collaboration; Flag (C); 6H (His6) (C); Avi (C)
Conditions: attenuation of covalent modification by GSK137
Procedure: With additional hits identified from the iterative screen, we sought to obtain further structural and biophysical information to better understand how these reactive fragments bind to BCL6. […] Table S8. Quantitative output from intact LC-MS analysis of BCL6 BTB/POZ domain reacted with SFs after incubation of DMSO-d 6 or GSK137. Extent of displacement measured as (DModification/Modification(DMSO-d 6 treatment)). […]
Give Displacement for every item shown.
One number for each entry, in %.

Known results for molecules:
- Structure As Smiles: "O=C(Cc1ccc(S(=O)(=O)F)cc1)N1CC(Oc2ccc(F)c(F)c2)C1"
  Measurement Name: "Displacement"
  Reported Value: 84
- Structure As Smiles: "CN(C)C(=O)Nc1cccc(CNC(=O)Cc2ccc(S(=O)(=O)F)cc2)c1"
  Measurement Name: "Displacement"
  Reported Value: 78
- Structure As Smiles: "NC(=O)c1ccccc1OC1CN(C(=O)Cc2ccc(S(=O)(=O)F)cc2)C1"
  Measurement Name: "Displacement"
  Reported Value: 92

# ---- query molecule ----
**Query** State the recorded Displacement for this entry: "CC(=O)Nc1cccc(CNC(=O)Cc2ccc(S(=O)(=O)F)cc2)c1"
**Result** 81

---

Target: BCL6 BTB/POZ domain (Homo sapiens, UniProt P41182, C67R/C84N/C8Q)
Assay: Conventional differential scanning fluorimetry (DSF)
Assay type: binding
Design: hBCL6-Flag 3Cmut (5-129) produced in house; FLAG (C); made in house
Conditions: relative to unmodified BCL6
Text: We subsequently analyzed protein-fragment interactions using differential scanning fluorimetry (DSF) to explore the impact of these binding events on protein stability.[45] […] The fluorescence intensity data from the individual replicates of each sample type were normalized and identically truncated within GraphPad Prism 5.0.4.11 These values were subsequently fitted to equation (4) corresponding to a Boltzmann sigmoid in order to obtain the melting temperature (“V50”; T m) of the protein: […]
Would you kindly list ΔTm for each of these compounds?

See these solved cases before continuing.
- Structure As Smiles: "CC(=O)Nc1cccc(CNC(=O)Cc2ccc(S(=O)(=O)F)cc2)c1"
  ΔTm: "+11.7 °C"
- Structure As Smiles: "NC(=O)c1ccccc1OC1CN(C(=O)Cc2ccc(S(=O)(=O)F)cc2)C1"
  ΔTm: "+1.2 °C"
- Structure As Smiles: "CN(C)C(=O)Nc1cccc(CNC(=O)Cc2ccc(S(=O)(=O)F)cc2)c1"
  ΔTm: "+7.9 °C"

Here is another compound to look at.
**Query** I would be grateful if you could share the reported ΔTm for "O=C(Cc1ccc(S(=O)(=O)F)cc1)N1CC(Oc2ccc(F)c(F)c2)C1" .
**Result** −3.2 °C
